experimental.details: Terminal half life in human plasma at 500 mg, po, bid for 3 to 5 days
Type: ADME, organism-based
recorded.conditions: read-out: beta t1/2 (converted)
outcome.measure: half-life (h)
Write the number in h without appending the unit.

Incoming: Sample "CC[C@H]1OC(=O)[C@H](C)[C@@H](O[C@H]2C[C@@](C)(OC)[C@@H](O)[C@H](C)O2)[C@H](C)[C@@H](O[C@@H]2O[C@H](C)C[C@H](N(C)C)[C@H]2O)[C@](C)(OC)C[C@@H](C)C(=O)[C@H](C)[C@@H](O)[C@]1(C)O" — what was its half-life?
Outgoing: 3.7

----------
experimental.details: AUC (0 to 24 hrs) in fasting human interstitial-space fluid of subcutaneous adipose tissue at 250 mg, po
Type: ADME, organism-based
outcome.measure: AUC(0-t) (ng·h/mL)
Report the value in ng·h/mL with no unit label.

Incoming: Quick one: AUC(0-t) for CC[C@H]1OC(=O)[C@H](C)[C@@H](O[C@H]2C[C@@](C)(OC)[C@@H](O)[C@H](C)O2)[C@H](C)[C@@H](O[C@@H]2O[C@H](C)C[C@H](N(C)C)[C@H]2O)[C@](C)(OC)C[C@@H](C)C(=O)[C@H](C)[C@@H](O)[C@]1(C)O [CLARITHROMYCIN] ?
Outgoing: 350

----------
experimental.details: AUC (0 to 8 hrs) in human interstitial-space fluid of skeletal muscle at 500 mg, po, bid for 3 to 5 days
Type: ADME, organism-based, Muscle tissue
Parameters: dose 500 mg, time < 8 hr, route oral
outcome.measure: AUC at 8 h (ng·h/mL)
Numbers only here, please. The scale is ng·h/mL.

Incoming: Query (molecule): CC[C@H]1OC(=O)[C@H](C)[C@@H](O[C@H]2C[C@@](C)(OC)[C@@H](O)[C@H](C)O2)[C@H](C)[C@@H](O[C@@H]2O[C@H](C)C[C@H](N(C)C)[C@H]2O)[C@](C)(OC)C[C@@H](C)C(=O)[C@H](C)[C@@H](O)[C@]1(C)O [CLARITHROMYCIN] ; field requested: AUC at 8 h
Outgoing: 920
